- Test system: Trypanosoma brucei rhodesiense
- Experiment description: Antitrypanosomal activity against Trypanosoma rhodesiense infections in mice, 106 mg/kg administered subcutaneously
- Type: functional
- Conditions used: route subcutaneous

# Mol smiles, Units, Delta MST
records = [
    ("Cc1ccc(NC(=O)Nc2ccc(C)c(N3C(N)=NC(N)=NC3(C)C)c2)cc1N1C(N)=NC(N)=NC1(C)C.Cl.Cl", "days", 0),
    ("CC1(C)N=C(N)N=C(N)N1c1ccc(Cc2ccc(N3C(N)=NC(N)=NC3(C)C)cc2)cc1.Cl.Cl", "days", 8),
    ("Cl.Cl.NC1=NC2(CCCCC2)N(c2ccc(CCc3ccc(N4C(N)=NC(N)=NC45CCCCC5)cc3)cc2)C(N)=N1", "days", 12),
    ("CC1(C)N=C(N)NC(Nc2ccc(CCc3ccc(NC4=NC(C)(C)N=C(N)N4)cc3)cc2)=N1.Cl", "days", 0.8),
    ("CC1(C)N=C(N)N=C(N)N1c1cccc2c(N3C(N)=NC(N)=NC3(C)C)cccc12.Cl.Cl", "days", -0.3),
]
